Target: EHMT2 (Homo sapiens, UniProt Q96KQ7)
Construct: host or cells: MDA-MB-231
Sequence (Q96KQ7 whole entry): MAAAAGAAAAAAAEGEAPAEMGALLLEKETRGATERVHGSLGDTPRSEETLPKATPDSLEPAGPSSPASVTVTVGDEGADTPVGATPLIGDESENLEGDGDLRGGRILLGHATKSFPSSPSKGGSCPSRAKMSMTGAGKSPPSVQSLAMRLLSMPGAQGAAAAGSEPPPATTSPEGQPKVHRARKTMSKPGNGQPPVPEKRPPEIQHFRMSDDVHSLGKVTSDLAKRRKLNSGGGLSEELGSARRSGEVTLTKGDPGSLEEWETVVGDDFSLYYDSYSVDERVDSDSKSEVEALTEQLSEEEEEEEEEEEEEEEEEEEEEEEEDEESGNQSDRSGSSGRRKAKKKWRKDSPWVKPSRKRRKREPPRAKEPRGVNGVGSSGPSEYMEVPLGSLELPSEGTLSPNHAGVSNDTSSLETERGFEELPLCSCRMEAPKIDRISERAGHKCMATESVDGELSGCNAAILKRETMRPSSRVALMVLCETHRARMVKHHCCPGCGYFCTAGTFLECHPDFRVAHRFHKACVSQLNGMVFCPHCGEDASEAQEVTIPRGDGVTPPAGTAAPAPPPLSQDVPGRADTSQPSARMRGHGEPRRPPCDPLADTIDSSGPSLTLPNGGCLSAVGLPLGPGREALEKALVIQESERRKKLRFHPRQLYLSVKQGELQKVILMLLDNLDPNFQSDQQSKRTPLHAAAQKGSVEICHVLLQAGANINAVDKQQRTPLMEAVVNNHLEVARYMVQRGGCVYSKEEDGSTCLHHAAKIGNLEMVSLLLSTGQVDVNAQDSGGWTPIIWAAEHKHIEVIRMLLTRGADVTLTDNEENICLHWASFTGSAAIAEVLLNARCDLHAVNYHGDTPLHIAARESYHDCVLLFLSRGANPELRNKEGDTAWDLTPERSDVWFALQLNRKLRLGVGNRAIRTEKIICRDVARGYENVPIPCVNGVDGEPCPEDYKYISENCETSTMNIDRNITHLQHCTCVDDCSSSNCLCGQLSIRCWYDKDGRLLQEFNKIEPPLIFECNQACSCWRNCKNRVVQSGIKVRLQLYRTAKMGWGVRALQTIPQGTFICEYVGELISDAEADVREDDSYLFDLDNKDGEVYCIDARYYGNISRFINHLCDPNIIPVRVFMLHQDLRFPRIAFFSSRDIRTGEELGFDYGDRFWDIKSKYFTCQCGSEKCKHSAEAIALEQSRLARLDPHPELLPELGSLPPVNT
Assay: MDA-MB-231 H3K9me2 in-cell Western assay (EHMT2 ICW)
Type: cell-based
Settings: Table VI; read-out: EHMT2 ICW IC50
// reported IC50 for each item listed

Example cases with answers are listed next.
Field IC50 (entry "CCN1CC([C@H](C)Oc2cc(Nc3nc(C)cc(NC)n3)ccc2OC)C1" ) reads 0.1 to 1 µM

Sample "CNc1cc(C)nc(Nc2cc(OCCCN3CCCC3)c3nccn3c2)n1" ; IC50 observed: > 10 µM

Per the record, "COc1cnc(Nc2cccc3nccn23)nc1OCCCN1CCCC1" has IC50 of > 10 µM

The reported IC50 of the compound "CNc1cc(C)c2cc(OC)c(OCCCN3CCCC3)cc2n1" was < 0.1 µM

The measured IC50 associated with "CNC(=O)c1cc(C)nc(Nc2ccc(OC)c(OCCCN3CCCC3)c2)n1" reads > 10 µM

Record "COc1cc2c(C3CCN(C)CC3)nc(-c3cn[nH]c3)nc2cc1OCCCN1CCCC1" . Reported IC50: 1 to 10 µM

response.value for "CNc1cc(C)nc(Nc2cnc(OC)c(OC[C@@H]3CCN(C4CCC4)C3)c2)n1" (field: IC50) = 0.1 to 1 µM

# compound "COc1cc2c(C3CCN(C)CC3)cc(C)nc2cc1OCCCN1CC[C@@H](F)C1" ; its IC50 = 1 to 10 µM

Looking up "CNc1ccnc(Nc2ccc(OC)c(OC[C@H]3CN(C)CCO3)c2)n1" , I found its IC50 recorded as > 10 µM

Sample "CCN1CC(COc2cc(Nc3nc(C)cc4[nH]ccc34)ncc2OC)C1" ; IC50 observed: 1 to 10 µM

More entries:
Lab book: IC50 of "CNc1cc2sccc2c(Nc2cc(OCCCN3CCCC3)c(OC)cn2)n1" noted as 1 to 10 µM

get_value(item= "COc1cc2c(C3CCN(C)CC3)cc(N3CCCCC3)nc2cc1OCCCN1CCCC1" , readout=IC50) returns 0.1 to 1 µM

For "COc1ccc(Nc2cc(C)[nH]n2)cc1OCCCN1CCCC1" the compound record lists IC50 as > 10 µM

Value of measured IC50 for the entry "CCN1CC[C@@H](COc2cc(Nc3nc(C)cc4[nH]ncc34)ncc2OC)C1" : 1 to 10 µM

Given item "CNc1cc(C)nc(Nc2ccc(OC)c(C#CCN3CCOCC3)c2)n1" , the value recorded as its IC50 is > 10 µM

The value of IC50 measured for the compound "CNc1ccnc(Nc2ccc(OC)c(OC[C@H](CN3CCCC3)OC)c2)n1" turned out to be 0.1 to 1 µM

The value of IC50 measured for the compound "CNc1cc(C)nc(Nc2ccc(OC)c(OC[C@H](O)CNC3CCC3)c2)n1" turned out to be 1 to 10 µM

get_value(item= CNCCC(C)Oc1cc(Nc2nccc(NC)n2)ccc1OC (stereo not drawn) , readout=IC50) returns 1 to 10 µM

Recorded result, "COc1cc2c(C3CCOCC3)cc(=O)[nH]c2cc1OCCCN1CCCC1" , IC50: > 10 µM

Record "CNc1cc(C)nc(Nc2ccc(OC)c(C(=O)NCc3ccccc3)c2)n1" , field IC50: > 10 µM

IC50 in this record for CNc1ccnc(Nc2ccc(OC)c(OCCC(C)NC)c2)n1 (stereo not drawn) : 1 to 10 µM

Data point: "CNc1ccnc(Nc2ccc(OC)c(OCC[C@H]3CCCN3)c2)n1" ; IC50 = > 10 µM

The compound listed as "COc1cnc(Nc2cccc3[nH]ncc23)nc1OCCCN1CCCC1" has a reported IC50 of > 10 µM
